target: T1, Anti-CD28 Fab (SEQ ID NOs: 696, 697)
T1 construct: In the phage ELISA the Fab was biotinylated and captured on neutravidin coated plates
T1 sequence (VH, as listed by the source, chain 1 of 2): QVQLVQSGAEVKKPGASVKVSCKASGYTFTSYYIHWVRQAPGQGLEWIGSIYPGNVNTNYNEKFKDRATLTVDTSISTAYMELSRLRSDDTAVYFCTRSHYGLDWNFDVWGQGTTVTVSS
T1 sequence (VL, as listed by the source, chain 2 of 2): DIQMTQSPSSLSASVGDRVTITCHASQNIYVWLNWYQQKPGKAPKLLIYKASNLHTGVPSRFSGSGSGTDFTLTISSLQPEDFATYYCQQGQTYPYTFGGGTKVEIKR
assayText: phage binding ELISA; Fab-coated wells pre-incubated with CD28 antigen as competitor, anti-M13 HRP detection;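 also: crude clonal phage supernatants from panned colonies added to wells after blocking buffer plus CD28 treatment, bound phage measured after a brief incubation and washing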
Where no end group is shown, it is not given here.
Recorded Anti-CD28 Fab signal in the presence of CD28 values for a group of binders are listed next.
// response body must contain only the number

YCDGHTSEYMTKCL (cysteine pairing not given here; also: displayed fused to phage pIII protein, fusion end and linker not given here, Clonal phage of the peptide-87 library, tested as crude supernatant; not shown: fused to the pIII filament protein of the bacteriophage) [Phage-996]    0.06
YCEGHTLEYMWKCL (cysteine pairing not given here; also: displayed fused to phage pIII protein, fusion end and linker not given here, Clonal phage of the peptide-87 library, tested as crude supernatant; not shown: fused to the pIII filament protein of the bacteriophage) [Phage-991]    0.33
YCDGHSEVYMSKCL (cysteine pairing not given here; also: displayed fused to phage pIII protein, fusion end and linker not given here, Clonal phage of the peptide-87 library, tested as crude supernatant; not shown: fused to the pIII filament protein of the bacteriophage) [Phage-990]    0.06
YCDGHLPVYMMKCL (cysteine pairing not given here; also: displayed fused to phage pIII protein, fusion end and linker not given here, Clonal phage of the peptide-87 library, tested as crude supernatant; not shown: fused to the pIII filament protein of the bacteriophage) [Phage-994]    0.07
YCDGHSPLYMVKCL (cysteine pairing not given here; also: displayed fused to phage pIII protein, fusion end and linker not given here, Clonal phage of the peptide-87 library, tested as crude supernatant; not shown: fused to the pIII filament protein of the bacteriophage) [Phage-987]    0.06
YCDGHFLTYMTKCL (cysteine pairing not given here; also: displayed fused to phage pIII protein, fusion end and linker not given here, Clonal phage of the peptide-87 library, tested as crude supernatant; not shown: fused to the pIII filament protein of the bacteriophage) [Phage-988]    0.07
YCDGHSQEYMAHCL (cysteine pairing not given here; also: displayed fused to phage pIII protein, fusion end and linker not given here, Clonal phage of the peptide-87 library, tested as crude supernatant; not shown: fused to the pIII filament protein of the bacteriophage) [Phage-986]    0.07

With those in mind, consider the next binder.
Give reported Anti-CD28 Fab signal in the presence of CD28 value for YCAGHSEEYMDKCL (cysteine pairing not given here; also: displayed fused to phage pIII protein, fusion end and linker not given here, Clonal phage of the peptide-87 library, tested as crude supernatant; not shown: fused to the pIII filament protein of the bacteriophage) [Phage-989] 0.05
